# Lookup of reported GI50 keyed by entry
- Tested on: MDA-MB-231
- test.details: NCI tumour cell line growth inhibition, 48 h
The source made the active and inactive calls. Rule as the data show it: active = GI50 up to about 1.1 µM and inactive = higher.

Record excerpt, results attached:
compound="BrC(Br)=C1C(=C(Br)Br)C(Br)C1Br (centres undefined)" metric=GI50 result="1.12 µM (inactive)"
compound="C/C(=C/CC[C@](C)(OC1OC(CO)C(O)C(O)C1O)[C@H]1CC[C@]2(C)[C@@H]1CC[C@@H]1[C@@]3(C)CC[C@H](O)C(C)(C)[C@@H]3C[C@H](O)[C@]12C)CO (some centres undefined)" metric=GI50 result="31.3 µM (inactive)"
compound=N#Cc1c2c(c(Nc3ccc(F)cc3)n3c1nc1ccccc13)CCCC2 metric=GI50 result="> 100 µM (inactive)"

Please find the next compound below.
Enquiry: State, in one line, measured GI50 of CCCNC(=O)N1CC(CN2CCN(c3ccccc3)CC2)O/C1=N/C(=O)Nc1ccccc1 (centres undefined)
Return: > 100 µM (inactive)

###

- Test system: UO-31
- test.details: NCI tumour cell line growth inhibition, 48 h
Activity calls are given as the source filed them. Cut-off read from the data, not from the text of the source: active = GI50 up to about 1.1 µM and inactive = higher.
metric: GI50

Use these answered entries as a reference point.
compound="O=C1CCCC1NC(=O)C(F)(F)F (stereo unspecified)" result="> 100 µM (inactive)"
compound=C(=C\C(SCc1ccccc1)SCc1ccccc1)/c1ccccc1 result="> 10 µM (inactive)"
compound=CN1C=C(C(N)=O)Cc2ccsc21 result="> 100 µM (inactive)"
compound="COc1cc2c3cc1Oc1c(O)c(OC)cc4c1C(Cc1ccc(O)c(c1)Oc1ccc(cc1)CC3N(C)CC2)N(C)CC4 (stereo unspecified)" result="15.8 µM (inactive)"
compound="Fc1ccccc1C1SCC2=Nc3ccccc3CN21 (stereo unspecified)" result="> 100 µM (inactive)"

Enquiry: Please indicate GI50 recorded for `Cc1ccc(NC(=O)C(=O)Cc2cc[n+]([O-])cc2)cc1`
Return: > 100 µM (inactive)

###

- System: COLO 205
- test.details: NCI tumour cell line growth inhibition, 48 h
Activity calls are given as the source filed them. Cut-off read from the data, not from the text of the source: active = GI50 up to about 1.1 µM and inactive = higher.
I would appreciate it if you answered using one of these outcomes: active, inactive

molecule=Cc1ccc(-c2cc(=O)c(=O)[nH][nH]2)cc1 category_label=inactive
molecule=CC(C)n1c(=O)n(-c2ccccc2)n(C(C)(C)C)c1=O category_label=inactive
molecule="c1ccc(-c2csc3c2-n2cccc2C3N2CCCC2)cc1 (configuration not stated)" category_label=inactive
molecule="CC1CNC(c2cccc(OCc3ccc(COc4cccc(C5=NC(C)CN5)c4)cc3)c2)=N1 (configuration not stated)" category_label=inactive
molecule=COc1ccc2c(c1)c(=Cc1ccc(N(C)C)cc1)c1cc(-c3ccccc3)[n+](C)n12 category_label=active

Enquiry: Outcome logged for CCCN(CCCC(NC(C)=O)C(=O)NCc1ccccc1)C(=O)N(C)N=O (configuration not stated) in this assay:
Return: inactive

Enquiry: Please share the test call associated with C/C=C/[C@H]1O[C@@](OC)([C@@H](C)[C@H](O)[C@H](C)[C@H]2OC(=O)/C(OC)=C/C(C)=C/[C@@H](C)[C@@H](O)[C@@H](C)[C@@H](O)[C@H](C)C/C(C)=C/C=C/[C@@H]2OC)CC(OC2CC(O)C(OC(N)=O)C(C)O2)[C@@H]1C (some centres not stated) .
Return: active

###

- Test system: Hs-578T
- test.details: NCI tumour cell line growth inhibition, 48 h
Activity calls are given as the source filed them. No stated cut-off is given here; in the data, active = GI50 up to about 1.1 µM and inactive = higher.
metric: GI50

Known GI50 results, listed for orientation:
compound=COc1ccc2nc3cc([N+](=O)[O-])ccc3c(Nc3ccc(S(=O)(=O)Nc4ncccn4)cc3)c2c1 result="12.4 µM (inactive)"
compound=N=C(N)N/N=C/c1c(-c2ccc(Cl)c([N+](=O)[O-])c2)nc2sc(Cl)cn12 result="2.33 µM (inactive)"
compound="C#CC1(O)C(COP(=O)(O)OC(COCCCCCCCCCCCCCCCCCC)COP(=O)(O)OCC2OC(n3cc(C)c(=O)[nH]c3=O)CC2N=[N+]=[N-])OC(n2ccc(N)nc2=O)C1O (stereo not given)" result="5.4 µM (inactive)"
compound=CCCSc1ccc2[nH]c(N3C(=O)/C(=C/c4ccc(SC)cc4)N=C3c3ccccc3)cc2c1 result="28.1 µM (inactive)"
compound=Cc1ccc(N2CCC3(CC2)OCCO3)cc1 result="> 100 µM (inactive)"
compound=CC(C)/C(Cl)=N\OC(=O)Nc1ccc(C#N)cc1 result="15.1 µM (inactive)"

Enquiry: Please supply the value of reported GI50 for the item CCOC(=O)N(C)CCC1CC=CC(=O)C1c1cccc(OC)c1OC (stereo not given)
Return: 71.4 µM (inactive)

Enquiry: Please give the documented GI50 of `O=c1oc2ccc([N+](=O)[O-])cc2cc1-c1csc(-c2ccccc2)n1`
Return: > 100 µM (inactive)

Enquiry: Give the value of GI50 reported for the following: `O=C1Nc2ccccc2C(=O)/C1=C/NC(=S)NC1CCCCC1`
Return: > 100 µM (inactive)

Enquiry: Retrieve GI50 measured for CNCC(SC)c1ccc(O)c(O)c1 (stereo not given) and print it.
Return: 66.1 µM (inactive)

###

- Tested on: TK-10
- test.details: NCI tumour cell line growth inhibition, 48 h
Activity calls are given as the source filed them. Rule as the data show it: active = GI50 up to about 1.1 µM and inactive = higher.
Mark one answer only. Choices: 1.0 for active, 0.0 for inactive

Example entries and their recorded answers appear below.
compound="N#CC(c1ccc(O)cc1)N1CCN(C(C#N)c2ccc(O)cc2)CC1 (centres undefined)" system_tested=TK-10 category_label=0.0
compound=CCOC(=O)/C1=C(\C)N(c2ccc(C)cc2)C(=O)c2ccccc2C(=O)c2c(O)ccc(O)c21 system_tested=TK-10 category_label=0.0
compound=C=C(CBr)CCCOCc1ccccc1 system_tested=TK-10 category_label=0.0
compound=Cc1ccc(/C=C/C(=O)C(C)(C)CN2CCCCC2)cc1 system_tested=TK-10 category_label=0.0
compound=Nc1nc(Cl)c(N)c(NCC2(CO)CCCC2)n1 system_tested=TK-10 category_label=0.0
compound=COC(=O)/C(C#N)=C(\N)c1c(C)c2ccccc2oc1=N system_tested=TK-10 category_label=0.0

Enquiry: Lab log entry: `Oc1cc(-c2cccc(F)c2)nc2cc3c(cc12)OCO3` — outcome as called in the assay?
Return: 1.0

Enquiry: Please share the test call associated with CN1C2CCC1CC(CCNC(c1ccccc1)c1ccccc1)C2 (centres undefined) .
Return: 0.0

Enquiry: What was the test verdict on `CC(C)(C)c1ccc(O)c(CN(Cc2c(O)ccc3ccccc23)C2CCCCC2)c1` ?
Return: 0.0

###

Recorded GI50 values for a group of compounds are listed next.
- System: Hs-578T
- test.details: NCI tumour cell line growth inhibition, 48 h
Active and inactive are the calls of the source. Rule as the data show it: active = GI50 up to about 1.1 µM and inactive = higher.

compound="Clc1ccc(Cc2nc3cc(Cl)c(Cl)cc3n2CC2CCCN3CCCCC23)cc1Cl (centres undefined)" result="3.4 µM (inactive)"
compound=N#CC1=C(N2CCCC2)NC(=O)CC1=O result="> 100 µM (inactive)"
compound=Cc1cc(Cl)ccc1Nc1sc(C(=O)c2cc3cc(Cl)ccc3o2)c(N)c1C#N result="> 100 µM (inactive)"
compound=CN1Cc2ccccc2S(=O)(=O)n2cccc2C1=O result="> 100 µM (inactive)"
compound=CCOC(=O)c1c(N2CCCC2)[nH]c(=O)c(C(c2c(O)c(C(=O)OCC)c(N3CCCC3)[nH]c2=O)C(C)C)c1O result="42.1 µM (inactive)"

Enquiry: Give the reported value of GI50 for this record: `Cc1ccc(S(=O)(=O)NN=C2C(C)(C)CC2(C)C)cc1`
Return: > 100 µM (inactive)

Enquiry: Find the measured GI50 of CC(C)=CCC/C(C)=C/C=C/C(C)=C/C=C/C(C)=C/C=C/C=C(C)/C=C/C=C(C)/C=C/[C@H]1C(C(C)(C)O)CC[C@]1(C)O (some centres undefined) and report it.
Return: 22.1 µM (inactive)

Enquiry: Give GI50 for the following compound: CC(=O)C1=C(C)N(c2ccc(C)cc2)C2(O)C3=C(C(=O)c4ccccc4C3=O)C(O)=CC12Cl (centres undefined)
Return: 6.28 µM (inactive)

Enquiry: Given the compound N#CC1=C(N)OC2=C(CCCc3ccc([N+](=O)[O-])cc32)C1c1ccc(Cl)cc1 (centres undefined) , write its reported GI50.
Return: 17.1 µM (inactive)

###

- Tested on: UO-31
- test.details: NCI tumour cell line growth inhibition, 48 h
Calls of active or inactive are those of the source. Rule as the data show it: active = GI50 up to about 1.1 µM and inactive = higher.
Below is a list of entries, each paired with its recorded GI50 value.

Consider the following illustrative entries.
molecule=Cc1ccc2c(c1-c1ccccc1)C(=O)OC2 metric=GI50 result="75 µM (inactive)"
molecule=NCc1ccc(-c2ccc(-c3ccc(-c4ccc(CN)s4)s3)s2)s1 metric=GI50 result="> 100 µM (inactive)"
molecule=COc1cccc(-c2ccc3c4c2O[C@H]2C(=O)CC[C@@]5(O)[C@@H](C3)N(CC3CC3)CC[C@]425)c1 metric=GI50 result="14.5 µM (inactive)"
molecule="CCC1C2C=CC(CC2)N1S(=O)(=O)c1ccc(C)cc1 (stereo unspecified)" metric=GI50 result="12.9 µM (inactive)"
molecule="C=CCN1CCC(OC(=O)C(O)(C#CC)C2CCCC2)CC1 (stereo unspecified)" metric=GI50 result="> 100 µM (inactive)"

Enquiry: Provide one value: measured GI50 of `CN1CCC2(CC1)SC[C@H]1C(=O)N(c3ccc(Cl)cc3)C(=O)N12`
Return: > 100 µM (inactive)

Enquiry: Return GI50 for the following molecule: `N=C(N)N/N=C/c1c(-c2ccc(Cl)c([N+](=O)[O-])c2)nc2sc(Cl)cn12`
Return: 1.84 µM (inactive)

Enquiry: // fetch GI50 given entry C=CCOc1ccc(C2c3c(n[nH]c3O)CC(C)(O)C2C(=O)OC)cc1OC (stereo unspecified)
Return: > 100 µM (inactive)

Enquiry: Supply reported GI50 belonging to this molecule: `CC(=O)N(C)c1ccc2ncccc2c1[N+](=O)[O-]`
Return: > 100 µM (inactive)

Enquiry: Return reported GI50. Input molecule: `O=C1Nc2ccccc2C(=O)/C1=C/NC(=S)NC1CCCCC1`
Return: > 100 µM (inactive)

Enquiry: Answer with the recorded GI50 for the molecule listed here: CCN(CC)/[N+]([O-])=N/OCC(C)O (stereo unspecified)
Return: > 100 µM (inactive)
